Molecular target: HLA-A*11:01
Experiment: IEDB peptide-MHC binding, purified MHC/direct/fluorescence; filed as Kd, often an IC50 or EC50 that approximates it; bounds were set here for any values at or beyond the usual limits of such assays
Details: source organism: Bacillus cereus NVH0597-99
MEASUREMENT LABEL: Kd

Q: Provide Kd value for the following sequence: ITMYVAFEQ
Ans: ≥ 20 µM

---

Molecular target: HLA-A*30:01
Assay: IEDB peptide-MHC binding, purified MHC/competitive/radioactivity; filed as Kd, often an IC50 or EC50 that approximates it; bounds were set here for any values at or beyond the usual limits of such assays
Details: source organism: Vaccinia virus WR
Consider the following sequences; for each one, report its pKd.
Scale explanation: pKd corresponds to minus log10 of a concentration expressed in moles per litre.

Q: Provide pKd value for the following sequence: KMRRERAAY
Ans: 8.52

Q: Provide pKd value for the following sequence: RNKLSYRNK
Ans: 7.19

Q: Provide pKd value for the following sequence: RAKSPTRQS
Ans: 6.59

Q: Provide pKd value for the following sequence: KGRRQYFYG
Ans: 8.55

Q: Provide pKd value for the following sequence: TFRERYSYK
Ans: 9.05

Q: Provide pKd value for the following sequence: KSRRLNLFS
Ans: 8.48

Q: Provide pKd value for the following sequence: KQYKFYNQI
Ans: 5.87

Q: Provide pKd value for the following sequence: RTRNMFRKK
Ans: 10.05

Q: Provide pKd value for the following sequence: HIKTIAVSV
Ans: 7.18

Q: Provide pKd value for the following sequence: LYRPNIPLK
Ans: 8.46

Q: Provide pKd value for the following sequence: KLLSHFYPA
Ans: 5.48

Q: Provide pKd value for the following sequence: KTSFHIIFL
Ans: 7.60

Q: Provide pKd value for the following sequence: CTKHSKDFA
Ans: 6.64

Q: Provide pKd value for the following sequence: MSVISNPSK
Ans: 7.71

Q: Provide pKd value for the following sequence: AAMYQYIFL
Ans: 8.12

---

Target: HLA-A*01:01
Test: IEDB peptide-MHC binding, purified MHC/direct/fluorescence; filed as Kd, often an IC50 or EC50 that approximates it; bounds were set here for any values at or beyond the usual limits of such assays
Conditions: source organism: Camelpox virus CMS
MEASUREMENT LABEL: Kd (nM)
Note: unit nM is implicit; provide only the numeric part.

Q: Provide Kd value for the following sequence: VSEKYTDMY
Ans: 3.3

---

Target: HLA-B*46:01
Assay: IEDB peptide-MHC binding, purified MHC/direct/fluorescence; filed as Kd, often an IC50 or EC50 that approximates it; bounds were set here for any values at or beyond the usual limits of such assays
Settings: source organism: Ebola virus - Mayinga, Zaire, 1976
pKd: −log10 of the molar value.
MEASUREMENT LABEL: pKd

Q: Provide pKd value for the following sequence: SRTPSGKRL
Ans: ≤ 4.70

---

Target: HLA-B*27:03
Assay: IEDB peptide-MHC binding, purified MHC/competitive/fluorescence; filed as Kd, often an IC50 or EC50 that approximates it; bounds were set here for any values at or beyond the usual limits of such assays
Conditions: source organism: Giardia lamblia ATCC 50803
MEASUREMENT LABEL: Kd

Q: Provide Kd value for the following sequence: STTTCEAGV
Ans: ≥ 20 µM
